Tested on: SK-MEL-2 melanoma
Experiment: NCI tumour cell line growth inhibition, 48 h
Each record here notes measured TGI.

[
  {
    "Compound": "COc1cc(C2C(C#N)=C(N)Oc3cc(O)ccc32)cc(OC)c1OC (centres undefined)",
    "TGI": "> 100 µM"
  },
  {
    "Compound": "O=C1OC(c2ccccc2)N/C1=C\\c1ccc2c(c1)OCO2 (centres undefined)",
    "TGI": "> 100 µM"
  },
  {
    "Compound": "C[C@@H]1OC(=O)/C(=C\\N(C)C)[C@H]2CC(=O)N(CCc3cn(S(=O)(=O)C(F)(F)F)c4ccccc34)C[C@H]12",
    "TGI": "> 100 µM"
  },
  {
    "Compound": "CCNCCCCNCC",
    "TGI": "> 3750 µM"
  },
  {
    "Compound": "COc1ccc(/C(C)=N/NC(N)=S)c(OC)c1",
    "TGI": "> 100 µM"
  },
  {
    "Compound": "c1ccc(C2N3CCCCC3[C@@H]3c4[nH]c5ccccc5c4CCN23)cc1 (some centres undefined)",
    "TGI": "> 100 µM"
  },
  {
    "Compound": "CN(C(=O)c1cccs1)C(=S)N1CCN(c2ccccc2)CC1",
    "TGI": "> 100 µM"
  },
  {
    "Compound": "CC1=CC2C(C(C)C)CC1C1C(=O)OC(=O)C21 (centres undefined)",
    "TGI": "> 100 µM"
  },
  {
    "Compound": "Cc1cccc(NC(=O)CC#N)c1Cl",
    "TGI": "> 100 µM"
  }
]

###

Tested on: TK-10 renal
Assay: NCI tumour cell line growth inhibition, 48 h

[
  {
    "Compound": "CC1(C)OC(=S)N(c2ccccc2)C12C=Cc1cc3ccccc3cc1O2 (configuration not stated)",
    "TGI": "> 100 µM"
  },
  {
    "Compound": "N/N=C(\\C(=O)Nc1ccc([N+](=O)[O-])cc1)C(C1=Nc2cc([N+](=O)[O-])ccc2NC1)[N+](=O)[O-] (configuration not stated)",
    "TGI": "> 100 µM"
  },
  {
    "Compound": "COC1(C)C=NCC(C)(C)NC(=O)C(C)(OC)C=NCC(C)(C)NC1=O (configuration not stated)",
    "TGI": "> 10 µM"
  },
  {
    "Compound": "Cc1nn(C)c2c1C(=O)N(C)CC(=O)N2C",
    "TGI": "> 100 µM"
  },
  {
    "Compound": "COc1cc(C=O)c(-c2cc3c(cc2C=O)OCO3)c(OC)c1OC",
    "TGI": "> 290 µM"
  },
  {
    "Compound": "CN1CCCCC1CCN1c2ccccc2Sc2ccc(S(C)=O)cc21 (configuration not stated)",
    "TGI": "> 100 µM"
  },
  {
    "Compound": "CN1OC2OC(=O)OC2[C@H]1[C@H]1O[C@H](c2ccccc2)OC1(C)c1cc(OC(=O)c2ccccc2)ccc1OC(=O)c1ccccc1 (some centres not stated)",
    "TGI": "> 50 µM"
  },
  {
    "Compound": "Cc1nc2cc(N)c(Cl)cc2[nH]1",
    "TGI": "> 100 µM"
  },
  {
    "Compound": "N=c1ccn2c(n1)O[C@@H]1[C@@H](O)[C@H](CO)O[C@@H]12",
    "TGI": "> 100 µM"
  },
  {
    "Compound": "CC(NC(=O)C(N)CC(=O)O)NC(=O)N1CCCC1 (configuration not stated)",
    "TGI": "> 100 µM"
  },
  {
    "Compound": "Cc1nc(C)c(N2CCN(C#N)CC2)c(=O)[nH]1",
    "TGI": "> 100 µM"
  },
  {
    "Compound": "O=C(O)/C=C\\C(=O)Nc1ccc2c(c1)C(=O)c1cc(F)ccc1-2",
    "TGI": "> 100 µM"
  }
]

###

Test system: MALME-3M melanoma
Test: NCI tumour cell line growth inhibition, 48 h
Quick reference for TGI among some compounds

[
  {
    "Compound": "NC(N)=Nc1nc2ccccc2[nH]1",
    "Study System": "MALME-3M melanoma",
    "TGI": "47.4 µg/mL"
  },
  {
    "Compound": "CCNCCCCNCC",
    "Study System": "MALME-3M melanoma",
    "TGI": "> 3750 µM"
  },
  {
    "Compound": "CC[C@]12C=CCN3CCC4(c5cc([C@@]6(C(=O)OC)CC7CN(CCc8c6[nH]c6ccccc86)C[C@@H]6CCC[C@H]76)c(OC)cc5N(C)C4[C@](O)(C(=O)OC)C1OC(C)=O)C32 (stereo not given in full)",
    "Study System": "MALME-3M melanoma",
    "TGI": "> 5.04 µM"
  },
  {
    "Compound": "CC(=O)OCc1cn(S(=O)(=O)c2ccc(C)cc2)cn1",
    "Study System": "MALME-3M melanoma",
    "TGI": "> 100 µM"
  },
  {
    "Compound": "O=[N+]([O-])c1ccc(-c2cn(-c3ccc(Cl)cc3)cn2)cc1",
    "Study System": "MALME-3M melanoma",
    "TGI": "> 100 µM"
  }
]

###

This section presents compounds with their documented TGI values.
System: CCRF-CEM leukemia
Experiment: NCI tumour cell line growth inhibition, 48 h

[
  {
    "Compound": "CC1=C2C(O)C(C(C)C(=O)NC(C)C)CCC2(C)C=CC1=O (centres undefined)",
    "TGI": "> 100 µM"
  },
  {
    "Compound": "COc1ccc(-c2nocc2-c2cc(OC)c(OC)c(OC)c2)cc1",
    "TGI": "> 100 µM"
  },
  {
    "Compound": "CC(=O)OCc1cn(S(=O)(=O)c2ccc(C)cc2)cn1",
    "TGI": "> 100 µM"
  },
  {
    "Compound": "Cn1cnc([N+](=O)[O-])c1Sc1nc(N)nc2c1ncn2Cc1ccccc1",
    "TGI": "> 100 µM"
  },
  {
    "Compound": "COc1ccc([C@@H]2CC(=O)NCCCCNCCCN2)cc1",
    "TGI": "> 100 µM"
  },
  {
    "Compound": "COc1cc(C2C(C#N)=C(N)Oc3cc(O)ccc32)cc(OC)c1OC (centres undefined)",
    "TGI": "> 100 µM"
  },
  {
    "Compound": "Cc1cc(-c2nc3cc(F)c(F)cc3s2)ccc1N",
    "TGI": "> 100 µM"
  },
  {
    "Compound": "O=c1[nH]c(/C=C(\\O)c2ccncc2)nc2ccccc12",
    "TGI": "> 100 µM"
  },
  {
    "Compound": "C=C1N(C)c2ccc(Cl)cc2C1(C)C",
    "TGI": "69.2 µM"
  },
  {
    "Compound": "C[C@]12CC[C@H]3[C@@H](C[C@@H]4N=C(c5ccc(O)cc5)S[C@@]45C[C@H](O)CC[C@]35C)[C@@H]1CC[C@@H]2O",
    "TGI": "47.2 µM"
  },
  {
    "Compound": "COc1cc(OC)nc(Nc2c(C#N)c3nc4ccccc4n3c3ccccc23)n1",
    "TGI": "> 100 µM"
  },
  {
    "Compound": "CCN(CC(COc1ccc2c(c1)[n+]([O-])nc(N)[n+]2[O-])OC(C)=O)C(C)=O (centres undefined)",
    "TGI": "> 100 µM"
  },
  {
    "Compound": "CP(C)(=S)P(C)(C)=S",
    "TGI": "> 100 µM"
  },
  {
    "Compound": "CCCCCC(/C=N/N)C(O)(C(F)(F)F)C(F)(F)F (centres undefined)",
    "TGI": "> 10 µM"
  }
]

###

Tested on: HS 578T breast
Test: NCI tumour cell line growth inhibition, 48 h
Here the recorded GI50 is given for each entry.
Readout Label: GI50

[
  {
    "Line Notation": "COc1cc2c3c(c4c5ccccc5[nH]c4c2c(OC)c1OC)C(=O)N(CCN1CCCCC1)C3=O",
    "Result": "1840 nM"
  },
  {
    "Line Notation": "Nc1c(C(=O)Nc2ccccc2)sc2nc3c(cc12)CCCC3",
    "Result": "2730 nM"
  },
  {
    "Line Notation": "CCCN1CCN(c2ccc3nc(-c4ccc5nc(-c6ccc(OCC)c(OCC)c6)[nH]c5c4)[nH]c3c2)CC1",
    "Result": "1110 nM"
  }
]

###

Tested on: ACHN renal
Assay: NCI tumour cell line growth inhibition, 48 h
Readout Label: GI50

[
  {
    "Line Notation": "CC[C@]12CCCN3CC[C@]4(C(=C(C(=O)OC)C1)Nc1ccccc14)[C@@H]32",
    "Result": "15.3 µM"
  },
  {
    "Line Notation": "COc1ccc(Nc2ncccc2C(=O)NCc2cn(Cc3cccc(Oc4ccccc4)c3)nn2)cc1",
    "Result": "4.79 µM"
  },
  {
    "Line Notation": "COc1ccc(-c2nocc2-c2cc(OC)c(OC)c(OC)c2)cc1",
    "Result": "1.53 µM"
  },
  {
    "Line Notation": "O=S(=O)(NCCCNc1cc(-c2cn(-c3ccccc3)nc2-c2cccc(O)c2)ccn1)c1ccc(Cl)cc1",
    "Result": "2.74 µM"
  },
  {
    "Line Notation": "O=C(Nc1ccc(Br)cc1F)c1cc(Br)ccc1O",
    "Result": "0.848 µM"
  },
  {
    "Line Notation": "Cc1nn(-c2ccc(Br)cc2)c(C)c1CC(=O)c1cc(O)ccc1O",
    "Result": "9.16 µM"
  }
]
